Quick list: TGI per entry.
Test system: K-562 leukemia
test_description: NCI tumour cell line growth inhibition, 48 h

O=C1c2ccccc2C(=O)C1C(c1ccc(F)cc1)C1C(=O)c2ccccc2C1=O = > 100 µM
COC(=O)C(COC(=O)/C=C/c1ccc(OC(C)=O)c(OC(C)=O)c1)NC(=O)/C=C/c1ccc(OC(C)=O)c(OC(C)=O)c1 (stereo not given) = > 100 µM
O=C(NO)[C@@H](Cc1ccccc1)NS(=O)(=O)c1ccc(-c2ccccc2)cc1 = > 25 µM
Clc1ccc(C[P+]2(c3ccccc3)CCCCC2)cc1 = > 100 µM
CC(=O)O[C@@]1(C)[C@@H](C)C(=O)O[C@@H]2CCN3CC=C(COC(=O)[C@]1(C)O)[C@H]23 = > 100 µM
O=c1cc(N=Nc2ccc(Cl)c(Cl)c2)[nH]c(=O)[nH]1 = 4.02 µM
Nc1n[n+](-c2ccccc2)no1 = > 100 µM
C[N+](C)(C)c1cc2c(nn1)Nc1ccccc1S2 = 68.9 µM

IN: Entry O=C1c2ccccc2-c2c1c1c(O)cccc1n2Cc1ccccn1 : reported TGI = ?
OUT: 79 µM

IN: Please give the result for CN(CC(=O)Nc1nc2ccccc2[nH]1)S(=O)(=O)c1ccc(Cl)cc1 too.
OUT: > 100 µM
